Target: soluble guanylate cyclase (Homo sapiens)
Sequence (Q02108 whole entry partner): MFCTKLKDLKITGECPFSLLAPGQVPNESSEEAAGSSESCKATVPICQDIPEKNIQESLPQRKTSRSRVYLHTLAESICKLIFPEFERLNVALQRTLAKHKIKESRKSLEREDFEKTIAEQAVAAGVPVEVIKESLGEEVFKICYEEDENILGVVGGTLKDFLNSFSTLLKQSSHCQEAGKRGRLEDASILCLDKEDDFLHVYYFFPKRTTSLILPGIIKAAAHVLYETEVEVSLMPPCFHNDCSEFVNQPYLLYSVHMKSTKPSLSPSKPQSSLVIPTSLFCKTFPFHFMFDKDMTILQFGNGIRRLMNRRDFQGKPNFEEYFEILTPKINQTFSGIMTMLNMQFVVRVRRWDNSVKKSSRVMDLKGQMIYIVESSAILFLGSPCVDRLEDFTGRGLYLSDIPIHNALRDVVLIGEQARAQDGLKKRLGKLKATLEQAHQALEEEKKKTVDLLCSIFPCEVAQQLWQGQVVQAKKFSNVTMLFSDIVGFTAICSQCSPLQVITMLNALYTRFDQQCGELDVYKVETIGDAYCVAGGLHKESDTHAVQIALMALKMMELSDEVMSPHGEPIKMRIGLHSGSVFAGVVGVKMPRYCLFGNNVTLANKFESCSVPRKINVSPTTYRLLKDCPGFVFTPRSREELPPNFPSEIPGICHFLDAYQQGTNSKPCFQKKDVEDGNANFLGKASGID
Sequence (Q02153 whole entry): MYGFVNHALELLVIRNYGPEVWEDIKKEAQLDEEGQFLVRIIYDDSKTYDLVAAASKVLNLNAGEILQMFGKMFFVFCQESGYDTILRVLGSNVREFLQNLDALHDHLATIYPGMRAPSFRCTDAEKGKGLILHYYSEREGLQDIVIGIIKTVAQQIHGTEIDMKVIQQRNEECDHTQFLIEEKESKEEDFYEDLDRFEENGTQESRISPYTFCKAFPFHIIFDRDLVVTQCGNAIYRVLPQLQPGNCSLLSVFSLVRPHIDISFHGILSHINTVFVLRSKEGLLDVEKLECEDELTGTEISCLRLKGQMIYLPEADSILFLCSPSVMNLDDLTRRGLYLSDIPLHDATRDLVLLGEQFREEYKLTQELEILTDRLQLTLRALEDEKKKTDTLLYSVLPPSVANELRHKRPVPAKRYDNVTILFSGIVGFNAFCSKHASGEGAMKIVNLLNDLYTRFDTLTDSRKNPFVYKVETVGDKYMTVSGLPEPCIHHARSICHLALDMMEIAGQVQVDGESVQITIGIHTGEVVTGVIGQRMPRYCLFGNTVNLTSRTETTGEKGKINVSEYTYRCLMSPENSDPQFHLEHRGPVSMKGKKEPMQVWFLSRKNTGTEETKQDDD
Experiment: CHO cellular assay (cGMP production, Cisbio cGMP HTRF)
Settings: CHO K1 cells overexpressing human GUCYA3/GUCYB3 (clone 8E10), 1 mM IBMX, 20 uM ODQ, 1 h room temperature, listed 0.5 nM means actual EC50 ≤0.5 nM (quantification limit)
pEC50: −log10 of the molar value.
readout name: pEC50

compound	observed value
Cc1cccc(CN2CCc3cc(OCC4=C(c5cccc(-n6ncc(C(=O)O)c6C(F)(F)F)n5)CCCC4)ccc3C2)n1	8.00

[1] Cc1cc(C2CCN(C(=O)CN)CC2)ccc1OCC1=C(c2cccc(-n3ncc(C(=O)O)c3C(F)(F)F)n2)CCCC1
[2] CCc1cc(OCC2=C(c3cccc(-n4ncc(C(=O)O)c4C)n3)CCCC2C)ccc1C1CCN(C(=O)[C@H](C)O)CC1 (single isomer, unassigned; diastereomer-2) [Example 19b]
[3] CCN(CC)C(=O)N1CCC(c2ccc(OCC3=C(c4cccc(-n5ncc(C(=O)O)c5C(F)(F)F)n4)CCCC3)c(C)c2)CC1
[4] O=C(O)c1cnn(-c2cccc(C3=C(COc4ccc5c(c4)CCN(Cc4ccc6ccccc6n4)C5)CCCC3)n2)c1C(F)(F)F
Ordering: ascending pEC50. List each label, following the requested order.
1, 4, 2, 3
